# experimental_system: c-Src SH2
# method_notes: SH2 binding enrichment of the phosphorylated peptide, bacterial display (enrichment ratio); higher = better substrate or ligand; peptides without Tyr show the background
measure: SH2 binding enrichment
Note: the reply should be a number with no unit written.

Returns the measured SH2 binding enrichment for the input sequence. Input: GLALRCLSDHS [VWF_Y1584_Y1584C] 0.41

// below: SH2 binding enrichment requested for another sequence
# get_value(readout='SH2 binding enrichment', item= MSNSAYVKREV [SCN1A_Y1694_F1692S] ) 0.454

----------
# experimental_system: c-Src SH2;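 note: peptide library displayed on the E. coli surface as eCPX fusions, selected cells deep-sequenced, score is each peptide's frequency after selection divided by its frequency in the input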
# method_notes: SH2 binding enrichment of the phosphorylated peptide, bacterial display (enrichment ratio); higher = better substrate or ligand; peptides without Tyr show the background
Please enter true (1) where SH2 binding enrichment is greater than or equal to 0.7, and false (0) where it is lower.

Evaluate CTTLHYNYMCN [TP53_Y234_I232L] : SH2 binding enrichment at minimum 0.7? true (1)

Item: TSEASYFKSLN [NGEF_Y288_YF] false (0)

Queued: IGNGYYFHVFS [MYBPC3_Y1136_R1138H] true (1)

STTIHYNFMCN [TP53_Y234_C229S_YF] ? false (0)

More entries:
Determine whether this sequence has SH2 binding enrichment no lower than 0.7: QDGFSYLSRQM [LDLR_Y847_P848L_YF] false (0)

Next entry: SAEKAYHEQLS [TUBA1A_Y282] false (0)

Next: RQLEIYRASRP [ERCC4_Y594] false (0)

Could you do the same for RICRRYCQVLN [IQCF1_Y144_R141C] , please? false (0)

And the next one, RLLRGHDQSAF [HLA-C_Y137_Y137H_YF] ? false (0)

Next sequence up: GLALRYLSDHS [VWF_Y1584] false (0)

Would you mind doing TEQDPYNNIDR [MMUT_Y364_V368D] as well? true (1)

Param item: QTLTDYDTRFY [CSNK2A3_Y131_I133T] false (0)

----------
# Tested on: c-Abl (mouse)
# method_notes: phosphorylation enrichment, bacterial display (enrichment ratio); higher = better substrate or ligand; peptides without Tyr show the background
Binary classification by phosphorylation enrichment, with 0.9 as an inclusive lower bound for class 1; all other cases are class 0.

I'd appreciate it if you could say whether PATFTYDEFKK [COL8A2_Y648_YF] has phosphorylation enrichment at least equal to 0.9. class 0

Same again, this time with VNYGAYINYFK [GLB1_Y488_D491Y] class 1

Now the sequence SLFNGYVFSGV [NEIL3_Y71_YF] class 0

Queued: GGEAIYAAPFA [Abl_opt_1995] class 1

Cool, now EAIAKYDFKAT [GRB2_Y7] class 0

Also TKQLTYEEQDL [PIK3C3_Y310] , if possible. class 1

Moving on to the next sequence: SLLPDYEDEEE [ZNF830_Y159] class 0

----------
Property: phosphorylation enrichment; scope: individual sequences
# experimental_system: FGFR1 (UniProt P11362)
# Sequence (P11362 whole entry, looked up): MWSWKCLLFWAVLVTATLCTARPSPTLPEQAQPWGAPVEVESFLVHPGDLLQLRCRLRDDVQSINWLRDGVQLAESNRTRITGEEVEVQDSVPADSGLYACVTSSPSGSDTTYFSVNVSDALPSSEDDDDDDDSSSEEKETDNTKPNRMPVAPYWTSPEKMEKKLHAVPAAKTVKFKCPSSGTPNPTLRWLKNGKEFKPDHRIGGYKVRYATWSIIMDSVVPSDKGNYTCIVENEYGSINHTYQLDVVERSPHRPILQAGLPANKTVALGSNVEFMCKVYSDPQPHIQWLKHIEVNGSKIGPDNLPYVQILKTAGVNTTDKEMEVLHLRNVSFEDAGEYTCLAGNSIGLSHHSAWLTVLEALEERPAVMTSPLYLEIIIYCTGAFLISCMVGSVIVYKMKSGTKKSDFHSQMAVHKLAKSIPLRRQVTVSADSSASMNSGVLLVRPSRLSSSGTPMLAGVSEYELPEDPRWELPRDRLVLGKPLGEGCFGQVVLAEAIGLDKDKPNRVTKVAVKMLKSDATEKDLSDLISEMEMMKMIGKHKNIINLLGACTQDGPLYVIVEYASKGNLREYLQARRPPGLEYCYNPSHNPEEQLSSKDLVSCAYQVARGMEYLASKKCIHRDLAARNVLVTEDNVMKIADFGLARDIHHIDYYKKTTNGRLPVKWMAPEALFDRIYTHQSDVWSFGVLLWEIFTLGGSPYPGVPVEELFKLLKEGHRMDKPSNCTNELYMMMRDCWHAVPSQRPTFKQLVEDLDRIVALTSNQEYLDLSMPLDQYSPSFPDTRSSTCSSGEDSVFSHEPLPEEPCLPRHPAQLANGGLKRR
# method_notes: phosphorylation enrichment, bacterial display (enrichment ratio); higher = better substrate or ligand; peptides without Tyr show the background
No unit in the answer, only the number.

Returns the measured phosphorylation enrichment for the input sequence. Input: QDGFSYPSRQM [LDLR_Y847_YF] 0.453

How about this sequence: ATHSRYRLNDY [CLDN14_Y233_G232R] 0.387

Please give the result for TSIGNYFKPWF [DHCR24_Y299_N294T_YF] too. 1.66

Do the same for KGYCGYSYDDI [TMEM230_Y110_R108C] please 0.927

Then SFPSFYTSHVQ [NEFL_Y443_YF] ? 0.5

---
Which phosphorylation enrichment is listed for PGPPGYCDSSH [COL12A1_Y3043_Q3048H] ? 0.512

What do you get for VEKEKYVSYIS [JMJD1C_Y596_M591V] ? 0.453

These data points were gathered from the supplement of paper PMC10065799.
